Molecular target: Tyrosine-protein phosphatase non-receptor type 1 (Mus musculus)
Assay: Inhibition of PTP1B in mouse C2C12 cells assessed as increase in intracellular 2-deoxyglucose uptake using [3H]glucose as substrate at 25 uM after 90 mins by scintillation counting
Type: cell-based
Calls of active or inactive are those of the source. No cut-off for these calls is given here.
Response enum: active, inactive

Look over these answered cases.
chemicalString	classification
COc1ccc(/N=C2\S/C(=C\c3cccc(OCc4ccccc4)c3)C(=O)N2Cc2ccc(C(=O)O)cc2)cc1	inactive
COc1ccc(/N=C2\S/C(=C\c3ccc(Oc4ccccc4)cc3)C(=O)N2Cc2ccc(C(=O)O)cc2)cc1	inactive
COc1ccc(/N=C2\S/C(=C\c3cccc(Oc4ccccc4)c3)C(=O)N2Cc2ccc(C(=O)O)cc2)cc1	inactive

Consider the additional compound presented here.
GET /call?item= O=C(O)c1ccc(CN2C(=O)/C(=C/c3cccc(Oc4ccccc4)c3)S/C2=N\c2ccc(C(F)(F)F)cc2)cc1 returns the recorded outcome of this test.
active

###

Biological target: Tyrosine-protein phosphatase non-receptor type 1 (Homo sapiens, UniProt P18031)
Sequence (P18031 whole entry): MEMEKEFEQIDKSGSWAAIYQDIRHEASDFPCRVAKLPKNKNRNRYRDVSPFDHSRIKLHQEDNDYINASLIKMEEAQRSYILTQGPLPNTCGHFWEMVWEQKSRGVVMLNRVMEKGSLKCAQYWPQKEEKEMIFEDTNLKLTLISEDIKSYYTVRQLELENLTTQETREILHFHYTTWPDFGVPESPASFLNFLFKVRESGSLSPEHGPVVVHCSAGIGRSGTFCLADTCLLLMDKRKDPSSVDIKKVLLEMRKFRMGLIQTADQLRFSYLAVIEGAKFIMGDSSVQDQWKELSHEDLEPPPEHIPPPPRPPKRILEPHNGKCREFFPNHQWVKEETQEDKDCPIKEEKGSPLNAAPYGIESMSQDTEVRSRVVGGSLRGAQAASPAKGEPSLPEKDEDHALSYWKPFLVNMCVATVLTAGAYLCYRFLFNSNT
Experiment: Competitive inhibition of GST-tagged human recombinant PTP1B expressed in Escherichia coli TB1 using p-nitrophenylphosphate as substrate by Line-Weaver Burk plot
measuredParameter: pKi
Reminder that pKi means the negative base-10 logarithm of the concentration expressed in mol/L.

Any idea what pKi was measured for O=C(O)c1ccc(CN2C(=O)/C(=C/c3ccc(OCc4ccccc4)cc3)S/C2=N\c2ccc(C(F)(F)F)cc2)cc1 ?
5.92

###

Attribute: pIC50
Target: Low molecular weight phosphotyrosine protein phosphatase (Homo sapiens)
Assay: Competitive inhibition of GST-tagged human recombinant LMW-PTP IF1 expressed in Escherichia coli TB1 using p-nitrophenylphosphate as substrate by Line-Weaver Burk plot
Reminder that pIC50 means the negative base-10 logarithm of the concentration expressed in mol/L.

chemicalString	reported
O=C(O)c1ccc(CN2C(=O)/C(=C/c3ccc4ccccc4c3)S/C2=N\c2ccc(C(F)(F)F)cc2)cc1	5.24

Any idea what pIC50 was measured for O=C(O)c1ccc(CN2C(=O)/C(=C/c3cccc(Oc4ccccc4)c3)S/C2=N\c2ccc(C(F)(F)F)cc2)cc1 ?
4.86

Any idea what pIC50 was measured for COc1ccc(/N=C2\S/C(=C\c3ccc(OCc4ccccc4)cc3)C(=O)N2Cc2ccc(C(=O)O)cc2)cc1 ?
5.19

Any idea what pIC50 was measured for O=C(O)c1ccc(CN2C(=O)/C(=C/c3ccc(OCc4ccccc4)cc3)S/C2=N\c2ccc(C(F)(F)F)cc2)cc1 ?
5.40

Any idea what pIC50 was measured for O=C(O)c1ccc(CN2C(=O)/C(=C/c3ccc(Oc4ccccc4)cc3)S/C2=N\c2ccc(C(F)(F)F)cc2)cc1 ?
5.14

###

Target: Low molecular weight phosphotyrosine protein phosphatase (Homo sapiens, UniProt P24666)
Sequence (P24666 whole entry): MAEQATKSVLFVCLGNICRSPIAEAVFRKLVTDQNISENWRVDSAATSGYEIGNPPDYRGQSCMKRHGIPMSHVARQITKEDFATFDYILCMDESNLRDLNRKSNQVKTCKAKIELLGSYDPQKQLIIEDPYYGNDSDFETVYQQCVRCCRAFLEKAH
Experiment: Competitive inhibition of GST-tagged human recombinant LMW-PTP IF1 expressed in Escherichia coli TB1 using p-nitrophenylphosphate as substrate by Line-Weaver Burk plot
measuredParameter: pIC50
Reminder that pIC50 means the negative base-10 logarithm of the concentration expressed in mol/L.

// worked examples, pIC50 included
chemicalString	measuredOn	pIC50
O=C(O)c1ccc(CN2C(=O)/C(=C/c3cccc(OCc4ccccc4)c3)S/C2=N\c2ccc(C(F)(F)F)cc2)cc1	Low molecular weight phosphotyrosine protein phosphatase (Homo sapiens, UniProt P24666)	4.92
COc1ccc(/N=C2\S/C(=C\c3cccc(Oc4ccccc4)c3)C(=O)N2Cc2ccc(C(=O)O)cc2)cc1	Low molecular weight phosphotyrosine protein phosphatase (Homo sapiens, UniProt P24666)	4.92
COc1ccc(/N=C2\S/C(=C\c3ccc(Oc4ccccc4)cc3)C(=O)N2Cc2ccc(C(=O)O)cc2)cc1	Low molecular weight phosphotyrosine protein phosphatase (Homo sapiens, UniProt P24666)	4.95
COc1ccc(/N=C2\S/C(=C\c3cccc(OCc4ccccc4)c3)C(=O)N2Cc2ccc(C(=O)O)cc2)cc1	Low molecular weight phosphotyrosine protein phosphatase (Homo sapiens, UniProt P24666)	5.02

Field: next compound
Any idea what pIC50 was measured for COc1ccc(/N=C2\S/C(=C\c3ccc4ccccc4c3)C(=O)N2Cc2ccc(C(=O)O)cc2)cc1 ?
4.94
